Biological target: T1, RHPN1, Q8TCX5
T1 sequence (Q8TCX5 508-602, limits assumed, looked up): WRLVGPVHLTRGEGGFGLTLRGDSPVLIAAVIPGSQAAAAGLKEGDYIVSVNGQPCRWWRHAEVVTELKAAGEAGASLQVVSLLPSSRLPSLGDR
Assay: holdup assay
Set-up: key: below the threshold = too weak to quantify, mostly under pKd 3.1 to 4
Conditions: plain residues with an end cap or a label only (N-terminal biotin on a linker: ado-ado)
measuredProperty: pKd

binder	observedResult
GFGEERESIL [KIDINS220, Q9ULH0]	4.61
FVHPILQSAV [PRKCA, P17252]	4.18
EEPEERHTEL [CES2, O00748]	4.19
TETASVCTKV [SLC23A1, Q9UHI7]	4.38
